molecular target: human KHK-C (Homo sapiens (Human), UniProt P50053); assay: KHK Biochemical Assay (IC50), ADP-Glo, KHK-C; conditions: average of at least two separate assays
Sequence (P50053 whole entry): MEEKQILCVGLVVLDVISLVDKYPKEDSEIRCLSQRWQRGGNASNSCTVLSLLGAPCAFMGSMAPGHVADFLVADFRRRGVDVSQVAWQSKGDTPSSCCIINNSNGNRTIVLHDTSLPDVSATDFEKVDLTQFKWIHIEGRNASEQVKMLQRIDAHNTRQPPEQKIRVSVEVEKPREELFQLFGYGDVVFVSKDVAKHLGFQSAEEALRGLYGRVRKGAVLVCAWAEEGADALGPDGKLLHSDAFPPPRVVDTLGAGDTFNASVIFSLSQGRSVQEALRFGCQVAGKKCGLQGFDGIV
pIC50: −log10 of the molar value.
measured_metric: pIC50

compound: C[C@H]1[C@H](F)CN1c1nc(-c2ccc3c(c2)S(=O)(=O)CC3NS(C)(=O)=O)c2c(n1)C(F)(F)CC2 (some centres unmarked) [Example 674]
result: 9.70
--
compound: C[C@H]1[C@H](O)CN1c1nc(-c2ccc3c(c2)CC[C@@]32COC(=O)N2)c2c(n1)C(F)(F)CC2 (single isomer, unassigned) [Example 476]
result: 9.70
--
compound: COc1ccc(-c2nc(N3C[C@@H](O)[C@@H]3C)nc3c2CCC3(F)F)cc1[S@](=N)(=O)C1CC1 (single isomer, unassigned) [Example 540]
result: 7.87

P = COc1cc(-c2nc(N3C[C@@H](O)[C@@H]3C)nc3c2CCC3(F)F)cc2c1[C@H](NS(C)(=O)=O)CO2 (single isomer, unassigned) [Example 531]
Q = C[C@H]1CCN1c1nc2c(c(-c3ccc4c(c3)CN(S(=O)(=O)CCO)CC4)n1)CCC2 [Example 605]
R = C[C@H]1[C@H](O)CN1c1nc(-c2ccc3c(c2)C(F)(F)C[C@H]3NS(C)(=O)=O)c2c(n1)C(F)(F)CC2 (single isomer, unassigned) [Example 635]
S = NC1(c2ccc(-c3nc(N4CCC4C4CCC4)nc4c3CCC4(F)F)cc2)COC1 (centres unmarked) [Example 572]
T = C[C@H]1[C@H](O)CN1c1nc(-c2ccc3c(c2)CC[C@@]32NC(=O)NC2=O)c2c(n1)C(F)(F)CC2 [Example 485]
Exam item: Thanks in advance: please rank these 5 entries by pIC50, highest to lowest. Respond with the label ranking, as requested.
Marked response: R, P, T, S, Q
(R: 8.54, P: 8.05, T: 7.65, S: 7.25, Q: 7.01)

---

target: human KHK-C (Homo sapiens (Human), UniProt P50053); test: KHK Biochemical Assay (IC50), ADP-Glo, KHK-C; settings: ADP-Glo; average of at least two separate assays
measured_metric: IC50 (nM)

compound: C[C@H]1[C@H](F)CN1c1nc2c(c(-c3ccc(S(N)(=O)=O)cc3)n1)CCC2
target_of_assay: human KHK-C (Homo sapiens (Human), UniProt P50053)
IC50 [nM]: 98.3
//
compound: C[C@H]1CCN1c1nc(-c2ccccc2)c2cccnc2n1
target_of_assay: human KHK-C (Homo sapiens (Human), UniProt P50053)
IC50 [nM]: 5590

P = C[C@H]1CCN1c1nc2c(c(-c3cccc(C(=O)NCC(N)=O)c3)n1)CCC2
Q = C[C@H]1CCN1c1nc2c(c(-c3cc(F)c4c(=O)[nH]ccc4c3)n1)CCC2
R = CC1CCc2nc(N3CC[C@@H]3C)nc(-c3ccccc3)c21 (stereo partly shown)
Exam item: Let's sort these by IC50, smallest first. Go ahead? Respond with the label ranking, as requested.
Marked response: Q, P, R

a = C[C@H]1CCN1c1nc2c(c(-c3ccc4c(c3)CC(C(N)=O)C4)n1)CCC2 (stereo partly shown)
b = C[C@H]1CCN1c1nc2c(c(-c3ccccc3)n1)CCOC2
c = C[C@H]1CCN1c1nc2c(c(-c3ccc(C#N)s3)n1)CCC2
d = C[C@H]1CCN1c1nc2c(c(-c3ccc(CN4CCC4)cc3)n1)CCC2
Exam item: Thanks in advance: please rank these 4 entries by IC50, highest to lowest. Respond with the label ranking, as requested.
Marked response: b, c, d, a

A = C[C@H]1CCN1c1nc2c(c(-c3cccc(S(=O)(=O)NCCO)c3)n1)CCC2
B = COC(=O)NC1COc2cc(-c3nc(N4C[C@@H](O)[C@@H]4C)nc4c3CCC4(F)F)cc(F)c21 (stereo partly shown)
C = C[C@H]1[C@H](O)CN1c1nc(-c2ccc3c(c2)OC[C@]32NC(=O)N(C)C2=O)c2c(n1)C(F)(F)CC2 (single isomer, unassigned)
D = C[C@H]1CCN1c1nc2c(c(-c3cc(C(N)=O)ns3)n1)CCC2
E = C[C@H]1CCN1c1nc2c(c(-c3ccc4c(c3)CCO4)n1)CCC2
Exam item: Let's sort these by IC50, smallest first. Go ahead? Respond with the label ranking, as requested.
Marked response: B, C, A, E, D

P = C[C@H]1CCN1c1nc2c(c(-c3ccc4[nH]nc(CC(=O)O)c4c3)n1)CCC2
Q = C[C@H]1CCN1c1nc2c(c(-c3cnn(C(F)F)c3)n1)CCC2
R = COC(=O)N[C@@H]1COc2cc(-c3nc(N4C[C@@H](O)[C@@H]4C)nc4c3CCC4(F)F)cc(OC)c21 (single isomer, unassigned)
Exam item: Thanks in advance: please rank these 3 entries by IC50, highest to lowest. Respond with the label ranking, as requested.
Marked response: Q, P, R

---

biological target: KHK-C expressed in NRK-52E cells (Homo sapiens (Human), UniProt P50053); assay: KHK-C Cell-based Assay (EC50), NRK CTG, fructose-mediated ATP-depletion
Sequence (P50053 whole entry): as above
measured_metric: EC50 (nM)

// known answers, use as guide
compound: C[C@H]1CCN1c1nc(-c2cccc(C(N)=O)c2)c2c(n1)[C@@H]1CC[C@H]2C1
EC50 [nM]: 138
--
compound: C[C@H]1[C@@H](F)CN1c1nc2c(c(-c3ccc(C(N)=O)cc3)n1)CCC2
EC50 [nM]: 26.9
--
compound: C[C@H]1CCN1c1nc(-c2ccc3c(c2)CCNC3)c2c(n1)C(F)(F)CC2
EC50 [nM]: 4.1
--
compound: C[C@H]1CCN1c1nc2c(c(-c3cnc(CN)s3)n1)CCC2
EC50 [nM]: 94.4
--
compound: C[C@H]1CCN1c1nc2c(c(-c3ccc4c(c3)CN(S(=O)(=O)CC#N)CC4)n1)CCC2
EC50 [nM]: 164
--
compound: C[C@@H]1CNC(=O)c2ccc(-c3nc(N4C[C@@H](O)[C@@H]4C)nc4c3CCC4(F)F)cc2O1
EC50 [nM]: 84.1
--
compound: C[C@H](NS(C)(=O)=O)c1cccc(-c2nc(N3CC[C@@H]3C)nc3c2CCC3(F)F)c1
EC50 [nM]: 17.9
--
compound: C[C@H]1CCN1c1nc2c(c(-c3ccc(C#N)c(Cl)c3)n1)CCC2
EC50 [nM]: 4490
--
compound: C[C@H]1CCN1c1nc(-c2cccc(CNS(C)(=O)=O)c2)c2c(n1)C(F)(F)CC2
EC50 [nM]: 16.1
--
compound: C[C@H]1CCN1c1nc2c(c(-c3cccc(CN4CCOCC4)c3)n1)CCC2
EC50 [nM]: 305

a = C[C@H]1[C@H](O)CN1c1nc2c(c(-c3cccc(NS(C)(=O)=O)c3)n1)CCC2
b = COc1ccc(-c2nc(N3C[C@@H](O)[C@@H]3C)nc3c2CCC3(F)F)cc1[S@@](C)(=N)=O (single isomer, unassigned)
c = C[C@H]1CCN1c1nc2c(c(-c3ccc(C4(N)CCC4)cc3)n1)CCC2
d = C[C@H]1CCN1c1nc2c(c(-c3ccc4ccc(C(=O)O)cc4c3)n1)CCC2
e = C[C@H]1CCN1c1nc2c(c(-c3cccc(CNS(C)(=O)=O)c3)n1)CCC2
Exam item: Thanks in advance: please rank these 5 entries by EC50, highest to lowest. Respond with the label ranking, as requested.
Marked response: d, a, e, b, c
(d: 1630 nM, a: 225 nM, e: 26.7 nM, b: 16 nM, c: 2.1 nM)

---

target: KHK-C expressed in NRK-52E cells (Homo sapiens (Human), UniProt P50053); assay: KHK-C Cell-based Assay (EC50), NRK CTG, fructose-mediated ATP-depletion
pEC50: −log10 of the molar value.
measured_metric: pEC50

compound: CCCN1C(=O)NC2(COc3cc(-c4nc(N5C[C@@H](O)[C@@H]5C)nc5c4CCC5(F)F)ccc32)C1=O (stereo partly shown) [Example 693]
pEC50: 8.19
--
compound: O=C1N[C@@]2(CO1)COc1cc(-c3nc(N4CC[C@@H]4C(F)(F)F)nc4c3CCC4(F)F)ccc12 [Example 830]
pEC50: 8.49
--
compound: C[C@H]1[C@H](O)CN1c1nc2c(c(-c3cccc(S(N)(=O)=O)c3)n1)CCC2 [Example 209]
pEC50: 6.60
--
compound: C[C@H]1CCN1c1nc(-c2cc3c(c(S(N)(=O)=O)c2)OCC3)c2c(n1)C(F)(F)CC2 [Example 742]
pEC50: 8.39
--
compound: C[C@H]1[C@H](F)CN1c1nc2c(c(-c3cccc(CNS(C)(=O)=O)c3)n1)CCC2 [Example 284]
pEC50: 7.25
--
compound: C[C@H]1CCN1c1nc2c(c(-c3ccc(-c4ncc[nH]4)cc3)n1)CCC2 [Example 185]
pEC50: 7.08
--
compound: C[C@H]1CCN1c1nc(-c2ccc(C(N)=O)cc2)c2c(n1)C(F)(F)CCC2 [Example 157]
pEC50: 6.54
--
compound: C[C@H]1[C@H](O)CN1c1nc2c(c(-c3ccc4c(N)nccc4c3)n1)CCC2 [Example 385]
pEC50: 8.38

1 = C[C@H]1CCN1c1nc2c(c(-c3ccc(CC(N)=O)cc3)n1)CCC2 [Example 245]
2 = C[C@H]1CCN1c1nc2c(c(-c3ccc4nc(N)ccc4c3)n1)CCC2 [Example 143]
3 = C[C@H](NS(C)(=O)=O)c1ccc(-c2nc(N3CC[C@@H]3C)nc3c2CCC3(F)F)cc1 [Example 750]
Exam item: Let's sort these by pEC50, smallest first. Go ahead? Respond with the label ranking, as requested.
Marked response: 1, 2, 3
(1: 6.43, 2: 7.36, 3: 7.83)

a = C[C@H]1CCN1c1nc(-c2ccc([C@@H](N)C(F)F)cc2)c2c(n1)C(F)(F)CC2 [Example 649]
b = C[C@H]1CCN1c1nc2c(c(-c3cccc(CN4CCCS4(=O)=O)c3)n1)CCC2 [Example 75]
Exam item: Returns: the argument ( a or b ) having the larger pEC50. # reply format: chosen label
Marked response: a

Data provenance: patent US12410160B2
